# Test system: Mus musculus
# procedure-details: Phototoxic effect in UV light irradiated mouse assessed as ear thickness at 140 mg/kg, after 72 hrs relative to control
# Type: ADME, organism-based
# Set-up: dose 140 mg/kg
# conditions: in vivo
// reported Activity for each item listed
Kindly answer with a numeric value in mm, unit omitted.

compound	units-text	Activity
CC1COc2c(N3CCN(C)CC3)c(F)cc3c(=O)c(C(=O)O)cn1c23.Cl (stereo unspecified)	mm	0.35

Data request: Using the record for CCn1cc(C(=O)O)c(=O)c2cc(F)c(N3CCNC(C)C3)c(F)c21 (stereo unspecified) [LOMEFLOXACIN] , report its Activity.
Data returned: 0.64

Data request: Same for CC1COc2c(N3CCN(C(=O)c4ccco4)CC3)c(F)cc3c(=O)c(C(=O)O)cn1c23 (stereo unspecified)
Data returned: 0.29

Data request: Same for CC1COc2c(N3CCSCC3)c(F)c([N+](=O)[O-])c3c(=O)c(C(=O)O)cn1c23 (stereo unspecified)
Data returned: 0.28

Data request: Same for CC1COc2c(N3CCN(C(c4ccccc4)c4ccc(Cl)cc4)CC3)c(F)c([N+](=O)[O-])c3c(=O)c(C(=O)O)cn1c23 (stereo unspecified)
Data returned: 0.29

Data request: Same for CC1COc2c(N3CCC4(CC3)OCCO4)c(F)cc3c(=O)c(C(=O)O)cn1c23 (stereo unspecified)
Data returned: 0.32

Each recorded value in this set is attributed to ChEMBL document CHEMBL1141647.
